Test system: Wolbachia pipientis
Test: Anti-Wolbachia Cell-Based Screen
Assay type: functional
Set-up: scale not given: in the data most compounds retested in dose-response had high values
Settings: 5 µM
The campaign covered roughly 48,000 compounds. About 13,000 (27%) showed an effect of 50% or more. The list shows a part of the results.
Would you kindly list Percent Effect for each of these compounds?

Below: 8 compounds and their reported Percent Effect.
[[record]]
compound = "CS(=O)(=O)NC[C@]12COC[C@H]1CN(C(=O)C1CC(F)(F)C1)C2"
result = "112.2%"

[[record]]
compound = "CCn1ncc2c1NC(=O)CC2c1cnc(NCc2ccccc2)nc1 (stereo not given)"
result = "4.243%"

[[record]]
compound = "O=C1C(Nc2ccc3nccnc3n2)CCN1c1ccccc1F (stereo not given)"
result = "-13.15%"

[[record]]
compound = "CS(=O)(=O)NC[C@]12COC[C@H]1CN(C(=O)c1ncccn1)C2"
result = "4.055%"

[[record]]
compound = "CN(C)c1ncnc2c1CCN(C(=O)CN1CCCCC1)C2"
result = "-9.788%"

[[record]]
compound = "CCNC(=O)N1CCC2(CC1)CCn1c(C3CC3)cnc12"
result = "0.3432%"

[[record]]
compound = "Cc1nnsc1CN1C[C@H]2CC[C@@H]1CN(Cc1ccc(F)cc1)C2"
result = "24.86%"

[[record]]
compound = "COC[C@]12COC[C@H]1CN(C(=O)C1CC(F)(F)C1)C2"
result = "-2.486%"


Give Percent Effect for each listed item.
1. CS(=O)(=O)NC[C@]12COC[C@H]1CN(C(=O)c1ccncn1)C2
2. CS(=O)(=O)NC[C@]12COC[C@H]1CN(C(=O)C1CC=CC1)C2

1. 0.7032%
2. 99.92%

* * *

Tested on: Wolbachia pipientis
Test: Anti-Wolbachia Cell-Based Screen
Assay type: functional
Design: scale not given: in the data most compounds retested in dose-response had high values
Details: 5 µM
Among all 48,000 compounds or so, about 13,000 (27%) showed an effect of 50% or more. Some of the results follow.
Consider the following compounds; for each one, report its Percent Effect.
Answers are plain numbers, in %.

[[record]]
compound = "Cc1nc(CNCc2ccc(OC34CCCN(CC3)C4)cc2)n[nH]1 (centres undefined)"
measure_name = "Percent Effect"
result_number = 103.3

[[record]]
compound = "O=c1[nH]nc(CNCc2ccc(OC34CCCN(CC3)C4)cc2)[nH]1 (centres undefined)"
measure_name = "Percent Effect"
result_number = 93.23

[[record]]
compound = "O=C(CNc1cccc(S(=O)(=O)C(F)F)c1)NCc1ccco1"
measure_name = "Percent Effect"
result_number = 4.728

[[record]]
compound = "CCc1nc2n(n1)CC(Nc1nc(C)cc(N(C)C)n1)CC2 (centres undefined)"
measure_name = "Percent Effect"
result_number = 2.422

[[record]]
compound = "CN(C)CCNCC1(O)CCCN(Cc2cccc(F)c2F)C1=O (centres undefined)"
measure_name = "Percent Effect"
result_number = -8.676

[[record]]
compound = "COc1ccc(N2CCN(Cc3noc(CC(C)C)n3)C(C)C2=O)cc1 (centres undefined)"
measure_name = "Percent Effect"
result_number = 87.05

[[record]]
compound = "CC(C)CC(NC(=O)c1cnn(C)c1)C(=O)Nc1cc[nH]n1 (centres undefined)"
measure_name = "Percent Effect"
result_number = -3.159

[[record]]
compound = "COc1ccc(S(=O)(=O)Cc2noc(CC(C)C)n2)cc1"
measure_name = "Percent Effect"
result_number = -2.844

[[record]]
compound = "CCc1nsc(N2CCc3sccc3C2)n1"
measure_name = "Percent Effect"
result_number = 12.97

[[record]]
compound = "CCn1nccc1C(=O)NC(Cn1cccn1)C(C)(C)C (centres undefined)"
measure_name = "Percent Effect"
result_number = 98.31


Would you be so kind as to report Percent Effect for each listed record?
1. COc1cccc(S(=O)(=O)Cc2noc(CC(C)C)n2)c1
2. Cc1ccc(CN2CCNC(=O)C2CC(=O)NCc2n[nH]c(C)n2)cc1 (centres undefined)
3. CC(C)(C)C(Cn1ccnc1)NC(=O)NCc1ccco1 (centres undefined)
4. CC(Cn1cccn1)NC(=O)C1=Cc2ccccc2OC1 (centres undefined)
5. Cc1cc2cc(Nc3c(C#N)c(=O)n(C)c(=O)n3C)ccc2[nH]1
6. O=C(CNc1ccc(OCC2CCOCC2)cc1)NCc1ccco1

[-0.9778, 3.294, 10.62, 2.492, 4.966, 93.4]

Return reported Percent Effect values for all items listed beneath this line.
1. COCCOc1ncccc1-c1noc([C@@H]2CCCN2C2CCC2)n1
2. CC(Cn1cccn1)NC(=O)NCCc1cnn(C)c1 (centres undefined)
3. CCOc1ccccc1CSc1nnc(CC2CCS(=O)(=O)C2)n1C (centres undefined)
4. O=C(CCc1cccnc1)Nc1ccc(OCC2CCOCC2)cc1

1: -10.03; 2: -2.639; 3: 3.399; 4: -6.342

State the recorded Percent Effect for every item in the following list.
1. COCc1nc(CN2CC(=O)N(C)c3ccccc3C2=O)no1
2. Cc1nc(CNC(=O)[C@@H]2CCCN2C(=O)OC(C)(C)C)cs1
3. Cc1ccnc(NCc2cccc(OCCN3CCOCC3)c2)n1
4. Cn1cc(C(=O)NC(Cn2cccn2)C(C)(C)C)cn1 (centres undefined)

1: -2.193; 2: -12.19; 3: 10.24; 4: 91.75
